Parameter: ED50. Scope: all listed entries.
System: rats mâles de souche OFA
experiment_notes: anti-ulcer activity against a necrotising agent (e.g. absolute ethanol), oral, rat
Format: in vivo
condition_set: v.o., 30 min before necrotising agent, stomachs removed 1 h after, dose reducing lesions by 50 %, determined graphically, read-out: activité anti-ulcère vis à vis d'un agent nécrosant DA 50 Mg/Kg v.o.
assay_readout: ED50 (mg/kg)

1. C#CCSc1nc2ccc(-n3ccnc3)cc2[nH]1	0.48
2. CSc1nc2ccc(-n3ccnc3)cc2[nH]1	4.5
3. C=CCSc1nc2ccc(-n3ccnc3)cc2[nH]1	0.33
4. Cn1c(=S)[nH]c2ccc(-n3ccnc3)cc21	4.5
